Where do these numbers come from? They come from ChEMBL document CHEMBL3600333.

- MEASUREMENT DESCRIPTION: Drug uptake in nucleus of human MDA-MB-231 cells at 10 uM after 18 hrs by DAPI staining-based confocal laser scanning microscopic analysis
- Assay type: ADME, cell-based
- CONDITION PARAMETERS: mda-mb-231, 18 h
Numbered stars: 1 amine (or outer) side, 2 acyl side, 3 side chain; on linkers, the order of the positions; unused ones are H or OH. Square brackets hold non-standard residues; d marks the D form. Peptide text beside a SMILES is read from it. * marks the point of attachment. Doxorubicin(3'-N) = COc1cccc2c1C(=O)c1c(O)c3c(c(O)c1C2=O)C[C@@](O)(C(=O)CO)C[C@@H]3O[C@H]1C[C@H](N*)[C@H](O)[C@H](C)O1; Mal(S(CH2)2NH)(CH2)5CO = O=C1CC(SCCN[*:1])C(=O)N1CCCCCC(=O)[*:2]
EXPERIMENTAL ENDPOINT: Drug uptake

In the examples that follow, each entry is paired with its recorded Drug uptake.
1) COc1cccc2c1C(=O)c1c(O)c3c(c(O)c1C2=O)C[C@@](O)(C(=O)CO)C[C@@H]3O[C@H]1C[C@H](NC(=O)C2CCC(CN3C(=O)CC(SCCN)C3=O)CC2)[C@H](O)[C@H](C)O1 (stereo partly drawn) : Active
2) COc1cccc2c1C(=O)c1c(O)c3c(c(O)c1C2=O)C[C@@](O)(C(=O)CO)C[C@@H]3O[C@H]1C[C@H](NC(=O)CCCc2ccc(N3C(=O)CC(SCCN)C3=O)cc2)[C@H](O)[C@H](C)O1 (stereo partly drawn) : Active
3) COc1cccc2c1C(=O)c1c(O)c3c(c(O)c1C2=O)C[C@@](O)(C(=O)CO)C[C@@H]3O[C@H]1C[C@H](NC(=O)CCCCCN2C(=O)CC(SCCN)C2=O)[C@H](O)[C@H](C)O1 (stereo partly drawn) : Active
4) COc1cccc2c1C(=O)c1c(O)c3c(c(O)c1C2=O)C[C@@](O)(C(=O)CO)C[C@@H]3O[C@H]1C[C@H](NC(=O)CCCCCN2C(=O)CC(SCCNC(=O)[C@H](CC(=O)O)NC(=O)[C@@H](NC(=O)[C@H](CCC(=O)O)NC(=O)[C@H](CC(=O)O)NC(=O)[C@@H](N)CCCNC(=N)N)C(C)C)C2=O)[C@H](O)[C@H](C)O1 (stereo partly drawn) (H-RDEVD[Mal(S(CH2)2NH)(CH2)5CO]-{Doxorubicin(3'-N)}) : Active
5) COc1cccc2c1C(=O)c1c(O)c3c(c(O)c1C2=O)C[C@@](O)(C(=O)CO)C[C@@H]3O[C@H]1C[C@H](NC(=O)CN2C(=O)CC(SCCN)C2=O)[C@H](O)[C@H](C)O1 (stereo partly drawn) : Active
6) COc1cccc2c1C(=O)c1c(O)c3c(c(O)c1C2=O)C[C@@](O)(C(=O)CO)C[C@@H]3O[C@H]1C[C@H](NC(=O)c2cccc(N3C(=O)CC(SCCN)C3=O)c2)[C@H](O)[C@H](C)O1 (stereo partly drawn) : Active

Please look up its Drug uptake: COc1cccc2c1C(=O)c1c(O)c3c(c(O)c1C2=O)C[C@@](O)(C(=O)CO)C[C@@H]3O[C@H]1C[C@H](N)[C@H](O)[C@H](C)O1 [DOXORUBICIN]
Active

---

- MEASUREMENT DESCRIPTION: Octanol-water partition coefficient, log P of the compound at 100 ug after 3 hrs by shake-flask method
- Assay type: physicochemical
Lab note: compare logP at 3 h with -0.4, writing MET if less and NOT MET if equal or more.

Item COc1cccc2c1C(=O)c1c(O)c3c(c(O)c1C2=O)C[C@@](O)(C(=O)CO)C[C@@H]3O[C@H]1C[C@H](NC(=O)CCCCCN2C(=O)CC(SCCN)C2=O)[C@H](O)[C@H](C)O1 (stereo not given in full) : logP at 3 h beneath -0.4, strictly?
NOT MET

Record COc1cccc2c1C(=O)c1c(O)c3c(c(O)c1C2=O)C[C@@](O)(C(=O)CO)C[C@@H]3O[C@H]1C[C@H](NC(=O)C2CCC(CN3C(=O)CC(SCCN)C3=O)CC2)[C@H](O)[C@H](C)O1 (stereo not given in full) : is its logP at 3 h strictly below -0.4?
NOT MET

Quick check: does COc1cccc2c1C(=O)c1c(O)c3c(c(O)c1C2=O)C[C@@](O)(C(=O)CO)C[C@@H]3O[C@H]1C[C@H](NC(=O)CCCc2ccc(N3C(=O)CC(SCCN)C3=O)cc2)[C@H](O)[C@H](C)O1 (stereo not given in full) have logP at 3 h under -0.4?
NOT MET

Find out if reported logP at 3 h for COc1cccc2c1C(=O)c1c(O)c3c(c(O)c1C2=O)C[C@@](O)(C(=O)CO)C[C@@H]3O[C@H]1C[C@H](NC(=O)CN2C(=O)CC(SCCN)C2=O)[C@H](O)[C@H](C)O1 (stereo not given in full) is less than -0.4
MET

Find out if reported logP at 3 h for COc1cccc2c1C(=O)c1c(O)c3c(c(O)c1C2=O)C[C@@](O)(C(=O)CO)C[C@@H]3O[C@H]1C[C@H](NC(=O)c2cccc(N3C(=O)CC(SCCN)C3=O)c2)[C@H](O)[C@H](C)O1 (stereo not given in full) is less than -0.4
NOT MET

---

- MEASUREMENT DESCRIPTION: Drug uptake in cytoplasm of human MDA-MB-231 cells at 10 uM after 18 hrs by DAPI staining-based confocal laser scanning microscopic analysis
- Assay type: ADME, cell-based
- CONDITION PARAMETERS: mda-mb-231, 18 h
Numbered stars: 1 amine (or outer) side, 2 acyl side, 3 side chain; on linkers, the order of the positions; unused ones are H or OH. Square brackets hold non-standard residues; d marks the D form. Peptide text beside a SMILES is read from it. * marks the point of attachment. Doxorubicin(3'-N) = COc1cccc2c1C(=O)c1c(O)c3c(c(O)c1C2=O)C[C@@](O)(C(=O)CO)C[C@@H]3O[C@H]1C[C@H](N*)[C@H](O)[C@H](C)O1; Mal(S(CH2)2NH)(CH2)5CO = O=C1CC(SCCN[*:1])C(=O)N1CCCCCC(=O)[*:2]
EXPERIMENTAL ENDPOINT: Drug uptake

1) COc1cccc2c1C(=O)c1c(O)c3c(c(O)c1C2=O)C[C@@](O)(C(=O)CO)C[C@@H]3O[C@H]1C[C@H](NC(=O)CCCCCN2C(=O)CC(SCCNC(=O)[C@H](CC(=O)O)NC(=O)[C@@H](NC(=O)[C@H](CCC(=O)O)NC(=O)[C@H](CC(=O)O)NC(=O)[C@@H](N)CCCNC(=N)N)C(C)C)C2=O)[C@H](O)[C@H](C)O1 (stereo partly specified) (H-RDEVD[Mal(S(CH2)2NH)(CH2)5CO]-{Doxorubicin(3'-N)}) : Active
2) COc1cccc2c1C(=O)c1c(O)c3c(c(O)c1C2=O)C[C@@](O)(C(=O)CO)C[C@@H]3O[C@H]1C[C@H](NC(=O)C2CCC(CN3C(=O)CC(SCCN)C3=O)CC2)[C@H](O)[C@H](C)O1 (stereo partly specified) : Active
3) COc1cccc2c1C(=O)c1c(O)c3c(c(O)c1C2=O)C[C@@](O)(C(=O)CO)C[C@@H]3O[C@H]1C[C@H](NC(=O)CN2C(=O)CC(SCCN)C2=O)[C@H](O)[C@H](C)O1 (stereo partly specified) : Active
4) COc1cccc2c1C(=O)c1c(O)c3c(c(O)c1C2=O)C[C@@](O)(C(=O)CO)C[C@@H]3O[C@H]1CC(NC(=O)C2CCC(CN3C(=O)CC(SC[C@H](N)C(=O)O)C3=O)CC2)[C@H](O)[C@H](C)O1 (single isomer, unassigned) : Active
5) COc1cccc2c1C(=O)c1c(O)c3c(c(O)c1C2=O)C[C@@](O)(C(=O)CO)C[C@@H]3O[C@H]1C[C@H](NC(=O)CCCc2ccc(N3C(=O)CC(SCCN)C3=O)cc2)[C@H](O)[C@H](C)O1 (stereo partly specified) : Active

As a next step, examine the compound that follows.
Query: Drug uptake; subject: COc1cccc2c1C(=O)c1c(O)c3c(c(O)c1C2=O)C[C@@](O)(C(=O)CO)C[C@@H]3O[C@H]1C[C@H](NC(=O)c2cccc(N3C(=O)CC(SCCN)C3=O)c2)[C@H](O)[C@H](C)O1 (stereo partly specified)
Active
